- Species on record: Rattus norvegicus
- Run description: Ability to inhibit [Fe2+] induced lipid peroxidation (LPO) in rat brain microsomes
- Assay type: functional
Outcome measure: IC50
// return the numeric value with its unit appended

Reference set, count: 3
Cc1c(C)c2c(c(C)c1O)CCC(C)(C(=O)N[C@@H](CC(C)C)C(=O)N[C@H]1CCOC1O)O2 (some centres undefined); 1.7 µM
Cc1cc(C(C)(C)C)c(O)c(C(C)(C)C)c1 [BUTYLATED HYDROXYTOLUENE]; 3.25 µM
CC(C)C[C@H](NC(=O)c1ccc2c(c1)Nc1ccccc1S2)C(=O)N[C@H]1CCOC1O (some centres undefined); 0.07 µM

Proceed to the following item.
Input line: Bench note: what IC50 did CC(C)C[C@H](NC(=O)c1cccc2c1Nc1ccccc1S2)C(=O)N[C@H]1CCOC1O (some centres undefined) show?
Output line: 3.6 µM
